tested on: human M1 receptor (hCHRM1) (Homo sapiens, UniProt P11229)
Construct: expressed in transfected cells
Sequence (P11229 whole entry): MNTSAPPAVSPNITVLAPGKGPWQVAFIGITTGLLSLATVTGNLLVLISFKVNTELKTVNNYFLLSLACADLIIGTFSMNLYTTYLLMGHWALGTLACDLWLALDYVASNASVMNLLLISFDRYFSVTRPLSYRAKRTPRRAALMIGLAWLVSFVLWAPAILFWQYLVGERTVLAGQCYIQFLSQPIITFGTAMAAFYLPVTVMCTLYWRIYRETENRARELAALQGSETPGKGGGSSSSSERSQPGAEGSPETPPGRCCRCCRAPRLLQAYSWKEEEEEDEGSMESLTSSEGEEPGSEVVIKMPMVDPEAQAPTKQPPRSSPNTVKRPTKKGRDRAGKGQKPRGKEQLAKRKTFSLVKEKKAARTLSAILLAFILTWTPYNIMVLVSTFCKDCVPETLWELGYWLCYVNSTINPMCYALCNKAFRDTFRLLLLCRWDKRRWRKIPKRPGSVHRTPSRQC
assay comment: Measurement of M1 receptor positive allosteric modulator (M1PAM) activity, calcium fluorescence (FLIPRtetra) with acetylcholine at EC20
Type: cell-based
particulars: 10 μM test compound; 100% = acetylcholine 1 μM, 0% = DMSO; acetylcholine at EC20
measure: activity (%) at 10 μM

| compound | activity (%) at 10 μM |
| --- | --- |
| Cc1c(Cc2ccc(-n3cccn3)cc2)cc2c(c1C)CN(c1ncccc1F)C2=O | 92 |
| COc1ccc(Cc2cc3c(c(C)c2C)CN([C@H]2COCC[C@@H]2O)C3=O)cc1 [Example 18] | 88 |
| CCc1cc2c(cc1Cc1ccc(-c3cn(C)nn3)cc1)C(=O)N(CC(C)(C)O)C2 | 106 |
| Cc1c(Cc2ccc(-c3ccn(C)n3)cc2)cc2c(c1C)CN([C@H]1CCC[C@@H]1O)C2=O (racemic) [Example 83] | 92 |
| Cc1cc(-c2ccc(Cc3cc4c(cc3C)CN([C@H]3CCC[C@@H]3O)C4=O)cc2)cnn1 (racemic) | 95 |
| Cc1c(Cc2ccc(-n3cccn3)cc2)cc2c(c1C)CN([C@H]1COCC[C@@H]1O)C2=O (racemic) | 103 |
| Cc1c(Cc2ccc(-n3cccn3)cc2)cc2c(c1C)CN([C@H]1CCCC[C@@H]1O)C2=O (racemic) | 102 |
